- System Name: T1, rat beta CGRP (SEQ ID NO: 83) (rat, not fully specified)
- T1 construct: also called rat βCGRP; rat β-CGRP
- T1 peptide: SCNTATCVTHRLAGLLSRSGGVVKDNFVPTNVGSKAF
- Measurement Protocol: SPR, 37 C, mutein captured, CGRP analyte
- Excerpt: The Biotin CAPture Kit (GE Healthcare) was used to immobilize biotinylated lipocalin muteins to a chip surface. Muteins were biotinylated using standard NHS chemistry. […] The data were double-referenced by subtraction of the corresponding signals measured for the control channel (loaded with Biotin CAPture reagent only) and by subtraction of buffer injections from the binding responses. […]
Values of Kd strictly less than 0.04 nM map to Fulfilled, and values of at least 0.04 nM map to Not fulfilled.

Binder	Class Label
lipocalin mutein SEQ ID NO: 20 (designed binder, biotinylated by NHS chemistry for capture in SPR) QDSTSDLIPAPPLSKVPLQQNFQDNQFHGKWYVVGRAGNDTLRKDKDPEKMEATIYELKEDKSYNVTDVGFVQKKCMYVIHTFVPGSQPGEFTLGNIKSYPGVTSALVRVVSTNYNQHAMVFVKLVKQNRELFEITLYGRTKELTSELKENFIRFSKSLGLPENHIVFPVPIDQCIDGSAWSHPQFEK	Fulfilled
lipocalin mutein SEQ ID NO: 4 (designed binder, biotinylated by NHS chemistry for capture in SPR) QDSTSDLIPAPPLSKVPLQQNFQDNQFHGKWYVVGWAGNTLLREDKDPTKMQATIYELKEDKSYNVTWVYFSEKKCNYHIETFVPGSQPGEFTLGTIKSYPGETSILVRVVSTNYNQHAMVFFKGVSQNREIFEITLYGRTKELTSELKENFIRFSKSLGLPENHIVFPVPIDQCIDGSAWSHPQFEK	Not fulfilled
lipocalin mutein SEQ ID NO: 11 (designed binder, biotinylated by NHS chemistry for capture in SPR) QDSTSDLIPAPPLSKVPLQQNFQDNQFHGKWYVVGWAGNTLLREDKDPIKMQAIIYELKEDRSYNVTWVYFSEKKCNYHIETFVPGSQPGEFTLGTIKSYPGETPILVRVVSTNYNQHAMVFFKGVNQNREIFEIILYGRTKELTNELKENFIRFSKSLGLPENHIVFPVPIDQCIDGSAWSHPQFEK	Not fulfilled
lipocalin mutein SEQ ID NO: 12 (designed binder, biotinylated by NHS chemistry for capture in SPR) QDSTSDLIPAPPLSKVPLQQNFQDNQFHGKWYVVGWAGNTLLREDKDPPKMQATIYELKEDRSYNVTWVYFSEKKCNYHIETSVPGSQPGEFTLGTIQSHPGETPILVRVVSTNYNQHAMVFFKGMGQNREIFEITLYGRTKELTSELKENFIRFSKSLGLPENHIVFPVPIDQCIDGSAWSHPQFEK	Not fulfilled
lipocalin mutein SEQ ID NO: 17 (designed binder, biotinylated by NHS chemistry for capture in SPR) QDSTSDLIPAPPLSKVPLQQNFQDNQFHGKWYVVGRAGNDVLREDKDPEKMEATIYELKEDKSYNVTDVGFVQKRCMYVTHTFVPGSQPGEFTLGNIESYPGVTSALVRVVSTDYNQHAMVFVKLVKQNRELFEITLYGRTKELTSELKENFIRFSKSLGLPENHIVFPVPIDQCIDGSAWSHPQFEK	Fulfilled
lipocalin mutein SEQ ID NO: 27 (designed binder, biotinylated by NHS chemistry for capture in SPR) QDSTSDLIPAPPLSKVPLQQNFQDNQFHGKWYVVGWAGNTLLREDKDPIKMQAMIYELKEDKSYNVTWVYFADKKCNYHIETFVPGSQPGEFTLGTIKSYPGETPILVRVVSTNYNQHAMVFFKGVNQNREIFEIVLYGRTKELTNELKENFIRFSKSLGLPENHIVFPVPIDQCIDGSAWSHPQFEK	Fulfilled

These data points were gathered from patent US20190338002A1.
